# credit: patent US20050250713A1

Heads up, these molecules all have MIC values measured for H. influenzae ATCC49247.
Reported property: MIC (µg/mL)

# Molecule, MIC / µg/mL
measured = [
    ("CC[C@H]1OC(=O)[C@H](C)C(=O)[C@H](C)[C@@H](O[C@@H]2O[C@H](C)C[C@H](N(C)C)[C@H]2O)[C@](C)(OC(=O)NC/C(F)=C/c2cnc3ccccc3c2)C[C@@H](C)C(=O)[C@H](C)[C@H]2NC(=S)O[C@@]21C [Compound 12]", 1),
    ("CC[C@H]1OC(=O)[C@H](C)C(=O)[C@H](C)[C@@H](O[C@@H]2O[C@H](C)C[C@H](N(C)C)[C@H]2O)[C@](C)(OC(=O)NC/C=C/c2ccc(Br)nc2)C[C@@H](C)C(=O)[C@H](C)[C@H]2NC(=S)O[C@@]21C [Compound 6]", 1),
    ("CC[C@H]1OC(=O)[C@H](C)C(=O)[C@H](C)[C@@H](O[C@@H]2O[C@H](C)C[C@H](N(C)C)[C@H]2O)[C@](C)(OC(=O)NC/C=C/c2cnc(C3CC3)nc2)C[C@@H](C)C(=O)[C@H](C)[C@H]2NC(=S)O[C@@]21C [Compound 7]", 1),
]
